experimentalProtocol: Total clearance in iv dosed rat
Type: ADME, organism-based
conditionInfo: in vivo
quantity: clearance (mL/min/kg)
Numbers only here, please. The scale is mL/min/kg.

[in] Form field: reported clearance of COc1cccc(OC)c1CNC(=O)c1cc2cc(C[C@@H](C)NC[C@H](O)c3ccc(O)c(CO)c3)ccc2[nH]1
[out] 130

---

experimentalProtocol: Apparent permeability from apical to basolateral side of human Caco-2 cell membrane
Type: ADME, cell-based
quantity: Papp A→B

[in] Form field: reported Papp A→B of COc1cccc(OC)c1CNC(=O)c1cc2cc(C[C@@H](C)NC[C@H](O)c3ccc(O)c(CO)c3)ccc2[nH]1
[out] < 1 ×10⁻⁶ cm/s

---

experimentalProtocol: Protein binding in rat plasma
Assay type: ADME, cell-free
conditionInfo: read-out: PPB (converted)
quantity: fraction unbound
# output: bare number, no unit

[in] Form field: reported fraction unbound of COc1cccc(OC)c1CNC(=O)c1cc2cc(C[C@@H](C)NC[C@H](O)c3ccc(O)c(CO)c3)ccc2[nH]1
[out] 0.1

---

Organism: Homo sapiens
experimentalProtocol: Ratio of EC50 for human recombinant adrenergic beta-2 receptor to EC50 for human recombinant adrenergic beta-1 receptor
Here the recorded Ratio EC50 is given for each entry.
# output: bare number, no unit

Below: 3 molecules and their reported Ratio EC50.
{"columns": ["mol", "Ratio EC50"],
 "data": [
  ["CCn1c(C(=O)NCc2c(OC)cccc2OC)cc2cc(C[C@@H](C)NC[C@H](O)c3ccc(O)c(CO)c3)ccc21", 254],
  ["COc1ccccc1CNC(=O)c1cc2cc(C[C@@H](C)NC[C@H](O)c3ccc(O)c(CO)c3)ccc2[nH]1", 1240],
  ["C[C@H](Cc1ccc2[nH]c(C(=O)NCc3c(F)cccc3F)cc2c1)NC[C@H](O)c1ccc(O)c(CO)c1", 296]
]}

[in] Form field: reported Ratio EC50 of C[C@H](Cc1ccc2[nH]c(C(=O)NCc3ccccc3)cc2c1)NC[C@H](O)c1ccc(O)c(CO)c1
[out] 480

[in] Also need C[C@H](Cc1ccc2[nH]c(C(=O)N(C)Cc3ccccc3)cc2c1)NC[C@H](O)c1ccc(O)c(CO)c1 , thanks.
[out] 882

[in] Also need C[C@H](Cc1ccc2[nH]c(C(=O)NCC3CCC3)cc2c1)NC[C@H](O)c1ccc(O)c(CO)c1 , thanks.
[out] 410

[in] Also need CC[C@H](Cc1ccc2[nH]c(C(=O)NCc3c(OC)cccc3OC)cc2c1)NC[C@H](O)c1ccc(O)c(CO)c1 , thanks.
[out] 5740

[in] Also need C[C@H](Cc1ccc2[nH]c(C(=O)NCc3nccs3)cc2c1)NC[C@H](O)c1ccc(O)c(CO)c1 , thanks.
[out] 1340

[in] Also need COc1cccc(OC)c1CNC(=O)c1cc2cc(C[C@@H](C)NC[C@H](O)c3ccc(O)c(CO)c3)ccc2n1C , thanks.
[out] 1080

---

experimentalProtocol: Oral bioavailability po dosed rat
Type: ADME, organism-based
conditionInfo: in vivo
quantity: bioavailability

[in] Form field: reported bioavailability of COc1cccc(OC)c1CNC(=O)c1cc2cc(C[C@@H](C)NC[C@H](O)c3ccc(O)c(CO)c3)ccc2[nH]1
[out] < 5%

---

experimentalProtocol: Lipophilicity, log D of the compound
Format: physicochemical
conditionInfo: octanol/water
Kind request: treat 2 as inclusive, so logD at 2 or higher is 1, anything lower is -1.

{"columns": ["mol", "labelValue"],
 "data": [
  ["C[C@H](Cc1ccc2[nH]c(C(=O)NCC3CCC3)cc2c1)NC[C@H](O)c1ccc(O)c(CO)c1", -1]
]}

[in] Exam item: decide whether the reported logD for C[C@H](Cc1ccc2[nH]c(C(=O)N(C)Cc3ccccc3)cc2c1)NC[C@H](O)c1ccc(O)c(CO)c1 is at least 2.
[out] 1

[in] Also need C[C@H](Cc1ccc2[nH]c(C(=O)N[C@H](C)c3ccccc3)cc2c1)NC[C@H](O)c1ccc(O)c(CO)c1 , thanks.
[out] 1

[in] Also need COc1ccccc1CNC(=O)c1cc2cc(C[C@@H](C)NC[C@H](O)c3ccc(O)c(CO)c3)ccc2[nH]1 , thanks.
[out] 1

[in] Also need C[C@H](Cc1ccc2[nH]c(C(=O)NCc3nccs3)cc2c1)NC[C@H](O)c1ccc(O)c(CO)c1 , thanks.
[out] -1

[in] Also need OCc1cc([C@@H](O)CNCCCCCCOCCCCc2ccccc2)ccc1O , thanks.
[out] 1

[in] Also need COc1cccc(OC)c1CNC(=O)c1cc2cc(C[C@@H](C)NC[C@H](O)c3ccc(O)c(CO)c3)ccc2[nH]1 , thanks.
[out] 1

---

experimentalProtocol: Apparent permeability from basolateral to apical side of human Caco-2 cell membrane
Type: ADME, cell-based
quantity: Papp B→A
Express your answer as a number followed by its unit.

[in] Form field: reported Papp B→A of COc1cccc(OC)c1CNC(=O)c1cc2cc(C[C@@H](C)NC[C@H](O)c3ccc(O)c(CO)c3)ccc2[nH]1
[out] 14 ×10⁻⁶ cm/s

---

Species: Homo sapiens
experimentalProtocol: Ratio of EC50 for human recombinant adrenergic beta-2 receptor to EC50 for human recombinant adrenergic beta-1 receptor
Here the recorded Ratio EC50 is given for each entry.

{"columns": ["mol", "Ratio EC50"],
 "data": [
  ["C[C@H](Cc1ccc2[nH]c(C(=O)NCc3ccccn3)cc2c1)NC[C@H](O)c1ccc(O)c(CO)c1", 1530],
  ["C[C@H](Cc1ccc2[nH]c(C(=O)NCc3ccc(O)cc3)cc2c1)NC[C@H](O)c1ccc(O)c(CO)c1", 75],
  ["C[C@H](Cc1ccc2[nH]c(C(=O)N[C@H](C)c3ccccc3)cc2c1)NC[C@H](O)c1ccc(O)c(CO)c1", 585],
  ["C[C@H](Cc1ccc2[nH]c(C(=O)NCc3ccc(S(N)(=O)=O)cc3)cc2c1)NC[C@H](O)c1ccc(O)c(CO)c1", 42],
  ["COc1cccc(OC)c1CNC(=O)c1cc2cc(C[C@@H](C)NC[C@H](O)c3ccc(O)c(CO)c3)ccc2n1Cc1ccccc1", 237]
]}

[in] Form field: reported Ratio EC50 of COc1cccc(CCNC(=O)c2cc3cc(C[C@@H](C)NC[C@H](O)c4ccc(O)c(CO)c4)ccc3[nH]2)c1
[out] 35

[in] Also need CSc1ccccc1CNC(=O)c1cc2cc(C[C@@H](C)NC[C@H](O)c3ccc(O)c(CO)c3)ccc2[nH]1 , thanks.
[out] 332

[in] Also need COc1cccc(OC)c1CNC(=O)c1cc2cc(C[C@@H](C)NC[C@H](O)c3ccc(O)c(CO)c3)ccc2[nH]1 , thanks.
[out] 4040

---

target: Beta-2 adrenergic receptor (Homo sapiens)
Sequence (P07550 whole entry): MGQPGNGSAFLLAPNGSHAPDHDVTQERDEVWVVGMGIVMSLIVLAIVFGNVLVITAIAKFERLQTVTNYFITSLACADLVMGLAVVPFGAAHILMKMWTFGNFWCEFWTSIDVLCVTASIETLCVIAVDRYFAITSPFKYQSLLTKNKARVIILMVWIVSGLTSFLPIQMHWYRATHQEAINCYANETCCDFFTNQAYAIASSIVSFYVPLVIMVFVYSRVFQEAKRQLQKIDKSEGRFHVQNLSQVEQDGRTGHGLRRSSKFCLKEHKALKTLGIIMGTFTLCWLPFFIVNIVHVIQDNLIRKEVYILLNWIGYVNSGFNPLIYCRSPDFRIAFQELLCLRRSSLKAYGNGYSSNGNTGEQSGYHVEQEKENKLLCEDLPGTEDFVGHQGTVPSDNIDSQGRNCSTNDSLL
pEC50: −log10 of the molar value.
Kind request: treat 10 as inclusive, so pEC50 at 10 or higher is Criterion met, anything lower is Criterion not met.

Before answering, review these 2 worked examples.
{"columns": ["mol", "labelValue"],
 "data": [
  ["C[C@H](Cc1ccc2[nH]c(C(=O)NCc3nccs3)cc2c1)NC[C@H](O)c1ccc(O)c(CO)c1", "Criterion met"],
  ["CC[C@H](Cc1ccc2[nH]c(C(=O)NCc3c(OC)cccc3OC)cc2c1)NC[C@H](O)c1ccc(O)c(CO)c1", "Criterion not met"]
]}

[in] Exam item: decide whether the reported pEC50 for COc1cccc(CCNC(=O)c2cc3cc(C[C@@H](C)NC[C@H](O)c4ccc(O)c(CO)c4)ccc3[nH]2)c1 is at least 10.
[out] Criterion not met

[in] Also need C[C@H](Cc1ccc2[nH]c(C(=O)NCc3ccccn3)cc2c1)NC[C@H](O)c1ccc(O)c(CO)c1 , thanks.
[out] Criterion met

---

target: Beta-2 adrenergic receptor (Homo sapiens)
quantity: pEC50
Note on units: pEC50 is unitless, being -log10 of a concentration expressed in mol/L.

Below: 3 molecules and their reported pEC50.
{"columns": ["mol", "pEC50"],
 "data": [
  ["COc1cccc(OC)c1CNC(=O)c1cc2cc(C[C@@H](C)NC[C@H](O)c3ccc(O)c(CO)c3)ccc2[nH]1", 10.24],
  ["C[C@H](Cc1ccc2[nH]c(C(=O)NCC3CCC3)cc2c1)NC[C@H](O)c1ccc(O)c(CO)c1", 10.29],
  ["C[C@H](Cc1ccc2[nH]c(C(=O)N[C@H](C)c3ccccc3)cc2c1)NC[C@H](O)c1ccc(O)c(CO)c1", 10.24]
]}

Next molecule, please.
[in] Form field: reported pEC50 of C[C@H](Cc1ccc2[nH]c(C(=O)NCc3ccc(S(N)(=O)=O)cc3)cc2c1)NC[C@H](O)c1ccc(O)c(CO)c1
[out] 9.91
